All values here come from paper PMC7830743.

- System: tumor LDH activity (A673 flank xenograft)
- PROTOCOL DESCRIPTION: In vivo LDHA activity in A673 xenograft tumor mouse model
- TEST CONDITIONS: single IV 50 mg/kg, A673 xenograft mice
MEASURED ENDPOINT: effect on LDH activity in tumors (in words)

Below, each entry is followed by its recorded effect on LDH activity in tumors (in words) result.
| COMPOUND STRUCTURE | MEASURED RESULT |
| --- | --- |
| NS(=O)(=O)c1ccc(Cc2c(-c3ccc(F)c(/C=C/C4CCCC4)c3)nn(-c3nc(C(=O)O)cs3)c2CC2CC2)cc1F | less effects |
| NS(=O)(=O)c1ccc(Cc2c(-c3cccc(C#Cc4ccc(C5CC5)s4)c3)nn(-c3nc(C(=O)O)cs3)c2CC2CC2)cc1F | moderate inhibition |
| Cc1ccc(C#Cc2cc(-c3nn(-c4nc(C(=O)O)cs4)c(CCC4CC4)c3Cc3ccc(S(N)(=O)=O)c(F)c3)ccc2F)s1 | moderate inhibition |
| CCCC#Cc1cc(-c2nn(-c3nc(C(=O)O)cs3)c(CC3CC3)c2Cc2ccc(S(N)(=O)=O)c(F)c2)ccc1F | less effects |
| C/C=C/c1cc(-c2nn(-c3nc(C(=O)O)cs3)c(CC3CC3)c2Cc2ccc(S(N)(=O)=O)c(F)c2)ccc1F | less effects |

Let us examine a further case.
Kindly note the recorded effect on LDH activity in tumors (in words) for Cc1cnc(C#Cc2cc(-c3nn(-c4nc(C(=O)O)cs4)c(CC4CC4)c3Cc3ccc(S(N)(=O)=O)c(F)c3)ccc2F)s1 , which is less effects
